- Test system: JURL-MK1 (Chronic Myelogenous Leukemia)
- Experimental Protocol: combination Emax (second highest fraction inhibited in the dose matrix, 72 h); higher = more inhibition; extreme values may be limits of the assay
Hi there, I'd appreciate the recorded combination Emax for every entry that follows.

INSERT INTO measurements (compound, recorded_measurement) VALUES
  ('COc1cccc(OCCCN)c1-c1cc(Nc2cnc(C#N)cn2)n[nH]1 [Prexasertib] + C=CCn1c(=O)c2cnc(Nc3ccc(N4CCN(C)CC4)cc3)nc2n1-c1cccc(C(C)(C)O)n1 [AZD1775] (first compound max 1 µM, partner max 1 µM)', 1),
  ('CCN(CCO)CCCOc1ccc2c(Nc3cc(CC(=O)Nc4cccc(F)c4)[nH]n3)ncnc2c1 [AZD2811] + C=CCn1c(=O)c2cnc(Nc3ccc(N4CCN(C)CC4)cc3)nc2n1-c1cccc(C(C)(C)O)n1 [AZD1775] (first compound max 1 µM, partner max 1 µM)', 0.995);

State the recorded combination Emax for every item in the following list.
1. Cc1c2c(nn1C)CSCc1cc(n(C)n1)CSc1cc(c3ccccc3c1)OCCCc1c(C(=O)O)n(C)c3c-2c(Cl)ccc13 [AZD5991] + Cc1cc2ncnn2cc1Nc1ncc2c(n1)n(C1CCOCC1)c(=O)n2C [AZD7648] (first compound max 1 µM, 7x7, partner max 10 µM)
2. Cn1cnc2c(F)c(Nc3ccc(Br)cc3Cl)c(C(=O)NOCCO)cc21 [Selumetinib] + C=CCn1c(=O)c2cnc(Nc3ccc(N4CCN(C)CC4)cc3)nc2n1-c1cccc(C(C)(C)O)n1 [AZD1775] (first compound max 10 µM, partner max 1 µM)

0.773
1
